Assay: Cytotoxicity on normal cell line L929 (cell counting kit-8, WST-8)
Type: cell-based
Conditions: mouse, L929 cells (NCTC clone 929, fibroblast cell line)
observation_type: CC50

In [3]: df
Out[3]:
                                   compound  result_value
0  Cc1ccnc(NC(=O)/C=C\C(=O)N2CCOCC2)c1 [Example 1-20]        100 µM

----------
Test: Cytotoxicity on normal cell line HFL-1 (cell counting kit-8, WST-8)
Format: cell-based
Conditions: human, HFL-1 cells (embryonic lung cell line); HFL-1 normal cell line; read-out: Cytotoxicity CC50 (μM), FL-1
observation_type: CC50

In [3]: df
Out[3]:
                    compound_structure  observation_type  result_value
0  Cc1ccnc(NC(=O)/C=C\C(=O)N2CCOCC2)c1              CC50        100 µM

----------
Experiment: Cytotoxicity on normal cell line VERO (cell counting kit-8, WST-8)
Format: cell-based
Details: African green monkey, VERO cells (kidney cell line), read-out: Cytotoxicity CC50 (μM), ERO
observation_type: CC50 (µM)

>>> print(df.to_string())
                    compound_structure  result_value
0  Cc1ccnc(NC(=O)/C=C\C(=O)N2CCOCC2)c1           100

----------
Assay: Cytotoxicity on normal cell line NIH 3T3 (cell counting kit-8, WST-8)
Assay type: cell-based
Details: mouse, NIH 3T3 cells (embryonic fibroblast cell line); NIH 3T3 normal cell line
observation_type: CC50

In [3]: df
Out[3]:
                    compound_structure  observation_type  result_value
0  Cc1ccnc(NC(=O)/C=C\C(=O)N2CCOCC2)c1              CC50      > 100 µM
